# target: Prostaglandin G/H synthase 1 (Homo sapiens); note: assay procedure not described here
# Sequence (P23219 whole entry): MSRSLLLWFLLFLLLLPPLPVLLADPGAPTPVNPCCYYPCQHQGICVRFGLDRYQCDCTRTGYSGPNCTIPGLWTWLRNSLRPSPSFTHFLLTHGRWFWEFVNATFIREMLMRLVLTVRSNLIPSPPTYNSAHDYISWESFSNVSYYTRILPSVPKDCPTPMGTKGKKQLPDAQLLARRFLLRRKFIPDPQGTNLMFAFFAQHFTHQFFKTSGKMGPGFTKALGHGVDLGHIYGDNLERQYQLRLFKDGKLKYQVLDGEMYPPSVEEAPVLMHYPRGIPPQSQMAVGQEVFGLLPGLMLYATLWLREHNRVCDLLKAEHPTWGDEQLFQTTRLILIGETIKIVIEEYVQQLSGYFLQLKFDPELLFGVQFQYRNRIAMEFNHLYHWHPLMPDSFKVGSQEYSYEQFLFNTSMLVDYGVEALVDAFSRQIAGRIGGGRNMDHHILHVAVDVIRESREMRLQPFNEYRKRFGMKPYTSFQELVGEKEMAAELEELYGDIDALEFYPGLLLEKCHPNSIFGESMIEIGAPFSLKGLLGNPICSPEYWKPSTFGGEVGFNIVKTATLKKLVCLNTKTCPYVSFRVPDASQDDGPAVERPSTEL
# Assay type: functional
Assignment: determine reported AC50 for the given compounds.

Worked examples follow.
{"compound": "C[C@H](N[C@@H](CCc1ccccc1)C(=O)O)C(=O)N1Cc2ccccc2C[C@H]1C(=O)O", "measured": "> 30 µM"}
{"compound": "CCCn1cnc2c1c(=O)n(CCCCC(C)=O)c(=O)n2C [PROPENTOFYLLINE]", "measured": "> 30 µM"}

For the next question, use this compound.
## Input Need AC50 of CCCCc1oc2ccc(NS(C)(=O)=O)cc2c1C(=O)c1ccc(OCCCN(CCCC)CCCC)cc1 [DRONEDARONE] , thanks.
## Output > 30 µM
